All figures here come from the NIST ThermoML archive (doi:10.1016/j.jct.2013.05.011).

Experiment: activity coefficient (dimensionless); of the first substance listed, at infinite dilution; xn = mol fraction of the nth substance listed
Details: 333.2 K; 101 kPa; Liquid; Chromatography; x1 = 0
readout-label: activity coefficient
# answer = number (no unit)

Look up activity coefficient: CCc1ccccc1 [ethylbenzene] + OCCOCCOCCO
8.63

Look up activity coefficient: c1ccccc1 [benzene] + OCCOCCO
7.33

Look up activity coefficient: Cc1ccccc1 [toluene] + OCCOCCOCCO
5.88

Look up activity coefficient: C#CCCCC [1-hexyne] + OCCOCCO
14.1

Look up activity coefficient: C=CCCC [1-pentene] + OCCOCCO
35.3

Look up activity coefficient: C=CCCCCCC [oct-1-ene] + OCCOCCOCCO
55.9

Look up activity coefficient: CCCCCCC [heptane] + OCCOCCOCCO
62.3

Look up activity coefficient: Cc1ccccc1 [toluene] + OCCOCCO
11.2

Look up activity coefficient: C#CCCCCCC [1-octyne] + OCCOCCOCCO
14.4

Look up activity coefficient: CCCCCCCCC [nonane] + OCCOCCOCCO
137

Look up activity coefficient: C1CCCCCC1 [cycloheptane] + OCCOCCOCCO
29.6

Look up activity coefficient: C=CCCC [1-pentene] + OCCOCCOCCO
17.5

Look up activity coefficient: C1CCCC1 [cyclopentane] + OCCOCCOCCO
15.2

Look up activity coefficient: C#CCCC [1-pentyne] + OCCOCCOCCO
5.07

Look up activity coefficient: CCCCCC [hexane] + OCCOCCOCCO
45.8

Look up activity coefficient: CCCCCCCCC [nonane] + OCCOCCO
264

Look up activity coefficient: C#CCCCC [1-hexyne] + OCCOCCOCCO
7.01

Look up activity coefficient: C#CCCCCCC [1-octyne] + OCCOCCO
29.9

Look up activity coefficient: C=CCCCCC [1-heptene] + OCCOCCO
72.3

Look up activity coefficient: C1CCCCCCC1 [cyclooctane] + OCCOCCO
70.7

Look up activity coefficient: CCO [ethanol] + OCCOCCOCCO
1.18
